# ASSAYED SYSTEM: human ether-à-go-go-related gene (hERG) potassium channel (human);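 also: peak tail current of the secondary pulse compared with the same well before compound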
# Sequence (Q12809 whole entry, looked up): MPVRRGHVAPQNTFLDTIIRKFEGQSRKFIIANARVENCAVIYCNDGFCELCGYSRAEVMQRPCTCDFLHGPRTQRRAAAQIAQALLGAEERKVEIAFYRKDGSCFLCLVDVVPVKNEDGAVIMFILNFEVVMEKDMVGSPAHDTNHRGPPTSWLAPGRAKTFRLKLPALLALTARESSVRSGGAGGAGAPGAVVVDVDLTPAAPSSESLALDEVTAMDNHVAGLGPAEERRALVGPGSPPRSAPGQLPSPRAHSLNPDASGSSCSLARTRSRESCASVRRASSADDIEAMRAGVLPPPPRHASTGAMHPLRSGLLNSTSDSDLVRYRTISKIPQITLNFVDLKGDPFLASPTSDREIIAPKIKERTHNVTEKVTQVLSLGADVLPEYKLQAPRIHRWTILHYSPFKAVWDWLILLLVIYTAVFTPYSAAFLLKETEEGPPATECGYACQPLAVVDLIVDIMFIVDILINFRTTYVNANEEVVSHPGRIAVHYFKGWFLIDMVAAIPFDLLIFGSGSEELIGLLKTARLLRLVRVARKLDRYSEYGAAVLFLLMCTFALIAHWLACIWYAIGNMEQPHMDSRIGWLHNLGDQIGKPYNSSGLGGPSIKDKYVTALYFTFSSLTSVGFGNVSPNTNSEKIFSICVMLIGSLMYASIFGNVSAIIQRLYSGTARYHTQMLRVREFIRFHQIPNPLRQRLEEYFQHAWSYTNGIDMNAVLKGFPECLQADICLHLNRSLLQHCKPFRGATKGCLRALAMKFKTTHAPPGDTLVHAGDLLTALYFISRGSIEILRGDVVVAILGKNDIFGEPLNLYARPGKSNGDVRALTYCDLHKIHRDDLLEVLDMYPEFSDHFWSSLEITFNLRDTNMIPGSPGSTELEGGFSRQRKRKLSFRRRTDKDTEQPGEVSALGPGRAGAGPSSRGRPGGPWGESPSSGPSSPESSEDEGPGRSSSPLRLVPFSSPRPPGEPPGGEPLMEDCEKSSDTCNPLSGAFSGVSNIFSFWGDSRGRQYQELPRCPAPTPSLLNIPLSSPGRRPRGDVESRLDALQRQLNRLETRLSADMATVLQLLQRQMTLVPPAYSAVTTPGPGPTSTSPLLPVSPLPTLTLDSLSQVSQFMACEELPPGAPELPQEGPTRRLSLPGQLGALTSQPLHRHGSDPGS
# PROTOCOL DESCRIPTION: primary screen, population patch clamp on CHO cells stably expressing hERG; higher = less effect of the substance
About 14,000 (4.5%) of roughly 310,000 compounds showed an effect of 50% or more. Effects have a minus sign here. What follows is part of a selection rich in strong results, with near analogues and random picks from the rest.
QUANTITY: hERG current change (%, negative = inhibition) at 10uM (%)
The figure you give is taken to be in %; do not add the unit.

Example entries and their recorded answers appear below.
O=C(c1ccco1)N1CCN(c2nnc(-c3ccccc3)c3ccccc23)CC1: -75.8
Cc1nn(-c2ccccc2)c2nc(-c3ccccc3)cc(C(=O)N3CCOCC3)c12: -25.9
O=C(NCCN1CCOCC1)c1ccc2c(c1)ncn2C1CCCC1: -6.39
Cc1cc(Nc2ccc(C(=O)N3CCCCC3)cc2)c2cccc(C)c2n1: -23.5

[Q] Respond only with hERG current change (%, negative = inhibition) at 10uM recorded for `CC(=O)c1ccc(Nc2cc(C)nc3c(C)cc(C)cc23)cc1`
[A] -45.7

[Q] Respond only with hERG current change (%, negative = inhibition) at 10uM recorded for CCOC(=O)C1CCCN(C(=O)c2ccc(Cn3c(=S)[nH]c4cc(C(=O)OC)ccc4c3=O)cc2)C1 (stereo not drawn)
[A] 10.6

[Q] Respond only with hERG current change (%, negative = inhibition) at 10uM recorded for `CCOC(=O)c1cc(-c2cccs2)nc2c1c(C)nn2-c1ccccn1`
[A] 17.2

[Q] Respond only with hERG current change (%, negative = inhibition) at 10uM recorded for `CCCN1CCN(C(=O)CCc2nnc3ccc(N4CCN(c5cccc(OC)c5)CC4)nn23)CC1`
[A] -54.9

[Q] Respond only with hERG current change (%, negative = inhibition) at 10uM recorded for COc1cccc(CNC(=O)C2Cc3ccccc3CN2C(C)=O)c1 (stereo not drawn)
[A] 2.81
